Test system: NCI-H322M
TEST_NAME: Cytotoxicity against human NCI-H322M cells after 48 hrs by trypan blue dye exclusion assay
Type: functional
TEST_READOUT: GI50

Consider the worked cases shown below.
[
  {
    "COMPOUND": "COc1cc([C@H]2C3=C(COC3=O)Nc3cc4c(cc32)OCO4)cc2c1OCO2",
    "GI50": "142 nM"
  },
  {
    "COMPOUND": "COc1ccc2c(c1)OC1=C(C(=O)OC1)C2c1cc(OC)c2c(c1)OCCO2 (configuration not stated)",
    "GI50": "47.4 nM"
  },
  {
    "COMPOUND": "COc1ccc2c(c1)C(c1cc(OC)c3c(c1)OCO3)C1=C(COC1=O)N2 (configuration not stated)",
    "GI50": "283 nM"
  }
]

Which GI50 value is on record for COc1cc(OC)cc(C2C3=C(COC3=O)Nc3cc(OC)ccc32)c1 (configuration not stated) ? < 10 nM

Which GI50 value is on record for COc1ccc2c(c1)NC1=C(C(=O)OC1)C2c1cc(OC)c2c(c1)OCO2 (configuration not stated) ? 58.3 nM

Which GI50 value is on record for COc1cc([C@@H]2c3cc4c(cc3[C@H](O)[C@H]3COC(=O)[C@H]23)OCO4)cc(OC)c1OC [PODOFILOX] ? 10 nM

Which GI50 value is on record for COc1ccc2c(c1)OC1=C(C(=O)OC1)C2c1cc(OC)c2c(c1)OCO2 (configuration not stated) ? 71.3 nM

====

Test system: RXF 393
TEST_NAME: Cytotoxicity against human RXF393 cells after 48 hrs by trypan blue dye exclusion assay
Assay type: functional
MEASUREMENT_CONDITIONS: RXF 393, 48 h
Kindly apply the following: YES if GI50 is less than 30 nM, NO in every other case.

Reference set (5 entries):
[
  {
    "COMPOUND": "COc1cc(OC)cc(C2C3=C(COC3=O)Nc3cc(OC)ccc32)c1 (stereo not drawn)",
    "CAT": "YES"
  },
  {
    "COMPOUND": "COc1ccc2c(c1)OC1=C(C(=O)OC1)C2c1cc(OC)c(OC)c(OC)c1 (stereo not drawn)",
    "CAT": "NO"
  },
  {
    "COMPOUND": "COc1cc([C@@H]2c3cc4c(cc3[C@H](O)[C@H]3COC(=O)[C@H]23)OCO4)cc(OC)c1OC",
    "CAT": "YES"
  },
  {
    "COMPOUND": "COc1ccc2c(c1)C(c1cc(OC)c3c(c1)OCO3)C1=C(COC1=O)N2 (stereo not drawn)",
    "CAT": "NO"
  },
  {
    "COMPOUND": "COc1ccc2c(c1)OC1=C(C(=O)OC1)C2c1cc(OC)c2c(c1)OCCO2 (stereo not drawn)",
    "CAT": "YES"
  }
]

Please check: GI50 for COc1ccc2c(c1)OC1=C(C(=O)OC1)C2c1cc(OC)c2c(c1)OCO2 (stereo not drawn) , strictly under 30 nM or not? YES

Please check: GI50 for COc1ccc2c(c1)NC1=C(C(=O)OC1)C2c1cc(OC)c2c(c1)OCO2 (stereo not drawn) , strictly under 30 nM or not? YES
